TARGET_UNDER_TEST: T1, CRBN, Q96SW2;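 note: pooled lentiviral library of zinc finger degron-EGFP fusions in mCherry-positive Jurkat cells, FACS-sorted after compound exposure, with degron abundance counted by next-generation sequencing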
T1 chain: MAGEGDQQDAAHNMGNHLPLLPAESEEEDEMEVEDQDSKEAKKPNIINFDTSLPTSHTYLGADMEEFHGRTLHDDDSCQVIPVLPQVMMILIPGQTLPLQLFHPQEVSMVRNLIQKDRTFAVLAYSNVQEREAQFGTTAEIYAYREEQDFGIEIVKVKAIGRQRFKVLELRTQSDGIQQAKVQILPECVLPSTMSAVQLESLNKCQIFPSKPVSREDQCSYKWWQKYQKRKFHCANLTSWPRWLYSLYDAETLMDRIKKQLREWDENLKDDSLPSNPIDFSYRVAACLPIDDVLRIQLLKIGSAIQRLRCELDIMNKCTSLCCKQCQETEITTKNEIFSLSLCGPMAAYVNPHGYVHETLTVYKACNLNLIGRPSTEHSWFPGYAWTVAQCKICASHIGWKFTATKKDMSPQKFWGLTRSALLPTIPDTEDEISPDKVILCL
ASSAY_TEXT: log2 fold change of degron read counts, EGFP-low vs EGFP+ sorted cells (limma voom), compound-induced degradation; higher = more compound-induced degradation of the degron-EGFP fusion; degrons are variants of IKZF1/3 zinc finger 2; compound dose not given here
CONDITIONS: Jurkat; 18 h; compound: thalidomide
In all, about 8,300 sequences were measured (“log2 fold change of degron read counts, EGFP-low vs EGFP+ sorted cells (limma voom), compound-induced degradation”: median about -1.1, highest 2% from about 3.2 on). What follows is part of a selection rich in the highest values, with near analogues and random picks from the rest.
Measured log2 fold change of degron read counts determines class: A = under -0.8, B = from -0.8 up to 0.8, C = 0.8 and over

FVCPQCGASFTQKGNLLRHIKL [46F_47V_49P_50Q_52G_53A_54S_55F_67L_, Q9UKT9]; C

Q: Which log2 fold change of degron read counts category applies to FECDICGANFTQKGNLLRHIKL [46F_47E_49D_50I_52G_53A_54N_55F_67L_, Q9UKT9] here?
A: B
